read-out: Monocyte Chemoattractant Protein-1 (MCP1), CCL2 (gene 6347); assay: BSK_SAg_MCP1: BioMAP Diversity Plus: SAg Assay for Monocyte Chemoattractant Protein-1 (MCP1) Biomarker Activity (AID 2283090); settings: primary human HUVEC with PBMC; actives raise or lower the signal
Active and inactive are the calls of the source. How the source made its calls: active means hit-call score of the fitted dose curve at least 0.9, where 1 is the maximum; inactive means score below 0.9.
Outcome (select one): active, inactive

INSERT INTO assay_data (substance_smiles, qualitative_label) VALUES
  ('CCC(=O)O[C@H]1CC[C@H]2[C@@H]3CCC4=CC(=O)CC[C@]4(C)[C@H]3CC[C@]12C', 'active'),
  ('Clc1ccc(C(Cl)(Cl)Cl)cc1', 'inactive');

Returns: the outcome recorded for O=S(=O)(O)C(F)(F)C(F)(F)C(F)(F)C(F)(F)F in this assay.
inactive

For O=S(=O)(O)C(F)(F)C(F)(F)C(F)(F)C(F)(F)C(F)(F)C(F)(F)F then?
inactive

---

read-out: CYP3A5 (gene 1577); assay: LTEA_HepaRG_CYP3A5: Life Technologies and Expression Analysis (LTEA) Assay for CYP3A5 using HepaRG (AID 2283493); conditions: mRNA level, 48 h; actives raise or lower the signal
The source made the active and inactive calls. The calls were made as follows: active = hit-call score of the fitted dose curve at least 0.9, where 1 is the maximum; inactive = score below 0.9.
Outcome (select one): yes (1) (active), no (0) (inactive)

Recorded results for 2 compounds are shown here.
INSERT INTO assay_data (substance_smiles, qualitative_label) VALUES
  ('Cc1ccccc1O', 'no (0)'),
  ('Cc1ccccc1CO[C@@H]1C[C@@]2(C(C)C)CC[C@]1(C)O2', 'no (0)');

Returns: the outcome recorded for C[C@]12CCC(=O)C=C1CC[C@@H]1[C@@H]2CC[C@]2(C)C(=O)CC[C@@H]12 in this assay.
yes (1)

For C[C@]12CCC(=O)C=C1CC[C@@H]1[C@@H]2CC[C@@]2(C)[C@H]1CC[C@]2(C)O then?
no (0)

For COc1ccc(O)c(C(C)(C)C)c1 then?
no (0)

For Cc1cccc(C)c1N then?
no (0)

For O=C(NC(=O)c1c(F)cccc1F)Nc1cc(Cl)c(OC(F)(F)C(F)F)c(Cl)c1 then?
no (0)

For O=C(N[C@H]1CN2CCC1CC2)c1cc2ccoc2cn1 then?
no (0)

For CCC(C)(CC)c1cc(NC(=O)c2c(OC)cccc2OC)on1 then?
no (0)

---

assay: CCTE_Simmons_CellTiterGLO_HEK293T: Viability Assessment in CCTE's Assays for Thyroperoxidase (TPO) Inhibition, Simmons Lab (AID 2283665)
Records with an inconclusive call do not appear. The source made the active and inactive calls. The calls were made as follows: active = hit-call score of the fitted dose curve at least 0.9, where 1 is the maximum; inconclusive = response in the unintended direction; inactive = score below 0.9.
Outcome (select one): active, inactive

Recorded results for 4 compounds are shown here.
INSERT INTO results (substance_smiles, qualitative_label) VALUES
  ('Cc1ccccc1CO[C@@H]1C[C@@]2(C(C)C)CC[C@]1(C)O2', 'active'),
  ('Oc1c(Cl)c(Cl)c(Cl)c(Cl)c1Cl', 'inactive'),
  ('O=C(NC(=O)c1c(F)cccc1F)Nc1cc(Cl)c(OC(F)(F)C(F)F)c(Cl)c1', 'inactive'),
  ('Oc1ccc(C(c2ccc(O)cc2)(C(F)(F)F)C(F)(F)F)cc1', 'active');

Shifting focus to the compound that follows.
Returns: the outcome recorded for c1ccc(-c2ccccc2)cc1 in this assay.
active

---

read-out: Transforming Growth Factor (TGFA), TGFA (gene 7039); experiment: LTEA_HepaRG_TGFA: Life Technologies and Expression Analysis (LTEA) Assay for Transforming Growth Factor (TGFA) using HepaRG (AID 2283532); settings: mRNA level, 48 h; actives raise or lower the signal
Activity calls are given as the source filed them. How the source made its calls: active means hit-call score of the fitted dose curve at least 0.9, where 1 is the maximum; inactive means score below 0.9.
Outcome (select one): 1 (yes) (active), 0 (no) (inactive)

Recorded results for 3 molecules are shown here.
INSERT INTO results (molecule, qualitative_label) VALUES
  ('Clc1ccc(C(c2ccccc2Cl)C(Cl)(Cl)Cl)cc1 (stereo unspecified)', '0 (no)'),
  ('O=C(N[C@H]1CN2CCC1CC2)c1cc2ccoc2cn1', '0 (no)'),
  ('CN(C)CCO', '0 (no)');

Returns: the outcome recorded for O=NN(c1ccccc1)c1ccccc1 in this assay.
0 (no)

For O=C(NC(=O)c1cc(F)c(F)cc1Cl)Nc1cc(F)ccc1N1CCC(C(=O)O)CC1 then?
0 (no)

---

read-out: Interleukin-8 (IL8), CXCL8 (gene 3576); assay: BSK_SAg_IL8: BioMAP Diversity Plus: SAg Assay for Interleukin-8 (IL8) Biomarker Activity (AID 2283094); details: primary human HUVEC with PBMC; actives raise or lower the signal
The source made the active and inactive calls. Rule for the calls: active = hit-call score of the fitted dose curve at least 0.9, where 1 is the maximum; inactive = score below 0.9.
Outcome (select one): active, inactive

INSERT INTO assay_data (substance_smiles, qualitative_label) VALUES
  ('Cc1cccc(C)c1N', 'inactive');

Returns: the outcome recorded for Cc1cc(O)ccc1Cl in this assay.
inactive

For Clc1ccc(Cl)cc1 then?
inactive

For N#Cc1ccc(N(CC(N)=O)CC(F)(F)F)cc1C(F)(F)F then?
inactive

For Cc1ccccc1[N+](=O)[O-] then?
inactive

For CCCCCCCCCC[N+](C)(C)CCCCCCCCCC then?
active

For COS(=O)(=O)OC then?
inactive

---

biological target: bovine Estrogen Receptor (ER), ESR1 (gene 407238) (UniProt P49884); assay: NVS_NR_bER: NovaScreen (NVS) Nuclear Receptor Binding Assay for bovine Estrogen Receptor (ER) (AID 2283345);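 further: actives lower the bound radioligand count which means they displace the ER ligand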
Sequence (P49884 whole entry, looked up): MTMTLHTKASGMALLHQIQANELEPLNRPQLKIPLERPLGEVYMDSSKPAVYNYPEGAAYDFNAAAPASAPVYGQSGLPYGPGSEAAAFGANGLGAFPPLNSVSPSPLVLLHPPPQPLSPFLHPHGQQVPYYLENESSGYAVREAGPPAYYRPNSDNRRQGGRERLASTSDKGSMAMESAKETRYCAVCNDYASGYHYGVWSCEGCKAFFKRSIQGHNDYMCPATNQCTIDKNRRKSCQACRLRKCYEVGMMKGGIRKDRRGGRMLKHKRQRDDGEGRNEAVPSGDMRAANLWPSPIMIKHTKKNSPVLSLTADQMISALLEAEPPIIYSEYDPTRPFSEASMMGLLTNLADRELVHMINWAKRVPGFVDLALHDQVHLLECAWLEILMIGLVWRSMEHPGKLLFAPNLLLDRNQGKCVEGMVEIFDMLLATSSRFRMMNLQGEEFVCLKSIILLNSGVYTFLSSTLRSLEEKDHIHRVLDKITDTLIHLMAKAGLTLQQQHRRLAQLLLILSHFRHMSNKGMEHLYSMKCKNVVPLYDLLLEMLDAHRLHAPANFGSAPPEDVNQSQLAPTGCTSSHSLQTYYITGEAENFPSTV
Results filed as inconclusive are left out. Calls of active or inactive are those of the source. How the source made its calls: active means hit-call score of the fitted dose curve at least 0.9, where 1 is the maximum; inconclusive means response in the unintended direction; inactive means score below 0.9.
Outcome (select one): 1 (yes) for active, 0 (no) for inactive

Recorded results for 2 compounds are shown here.
INSERT INTO assay_data (substance_smiles, assay_target, qualitative_label) VALUES
  ('NS(=O)(=O)C(F)(F)C(F)(F)C(F)(F)C(F)(F)C(F)(F)C(F)(F)C(F)(F)C(F)(F)F', 'bovine Estrogen Receptor (ER), ESR1 (gene 407238) (UniProt P49884)', '0 (no)'),
  ('Cc1cc(-c2ccc(N)c(C)c2)ccc1N', 'bovine Estrogen Receptor (ER), ESR1 (gene 407238) (UniProt P49884)', '1 (yes)');

Shifting focus to the compound that follows.
Returns: the outcome recorded for Cc1cc(O)ccc1Cl in this assay.
0 (no)

---

Assay: APR_HepG2_p53Act_72hr: Apredica 72-hour HepG2 Assay for p53 Activation (AID 2282923);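 further: average cellular p53 protein immunofluorescence intensity in HepG2 cells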
Settings: high-content imaging, actives raise or lower the signal
Description: APR_HepG2_72hr is a cell-based, multiplexed-readout assay that uses HepG2, a human liver cell line, with measurements taken at 72 hours after chemical dosing in a 384-well plate.APR_HepG2_p53Act_72hr is one of 10 assay component(s) measured or calculated from the APR_HepG2_72hr assay. […] This assay endpoint, APR_HepG2_p53Act_72hr, was analyzed with bidirectional fitting relative to DMSO as the negative control and baseline of activity. […]
Activity calls are given as the source filed them. How the source made its calls: active means hit-call score of the fitted dose curve at least 0.9, where 1 is the maximum; inactive means score below 0.9.
reported metric: AC50

// worked examples, AC50 included
INSERT INTO assay_data (compound, experimental_value) VALUES
  ('CC(C)(c1ccccc1)c1ccc(O)cc1', 'inactive'),
  ('ClC1=C(Cl)[C@]2(Cl)[C@@H]3[C@H]4C[C@H]([C@@H]5O[C@H]45)[C@@H]3[C@@]1(Cl)C2(Cl)Cl', 'inactive'),
  ('O=C(NC(=O)c1cc(F)c(F)cc1Cl)Nc1cc(F)ccc1N1CCC(C(=O)O)CC1', 'inactive'),
  ('Cc1ccccc1O', 'inactive'),
  ('O=NN(c1ccccc1)c1ccccc1', 'inactive'),
  ('Cc1ccccc1[N+](=O)[O-]', 'inactive'),
  ('CCC(C)c1cc([N+](=O)[O-])cc([N+](=O)[O-])c1O (stereo not drawn)', 'inactive'),
  ('Oc1ccc(Cl)cc1Cl', 'inactive');

Parameter requested: AC50. Apply to each item below.
1. CC(C)C(=O)OCC(C)(C)C(OC(=O)C(C)C)C(C)C (stereo not drawn)
2. O=C(O)C(F)(F)C(F)(F)C(F)(F)C(F)(F)C(F)(F)C(F)(F)C(F)(F)C(F)(F)F
3. NS(=O)(=O)C(F)(F)C(F)(F)C(F)(F)C(F)(F)C(F)(F)C(F)(F)C(F)(F)C(F)(F)F
4. c1ccc(-c2ccccc2)cc1
5. CC#Cc1cc(C)nc(Nc2ccccc2)n1

["inactive", "106 µM (active)", "61.7 µM (active)", "inactive", "103 µM (active)"]

---

assay: TOX21_p53_BLA_p3_viability: Viability Assessment in the Tox21 HCT-116 p53 Agonism Beta-lactamase Assay, Phase 3 (AID 2283593);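 further: cells exposed to compound for 16 h before reading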
Inconclusive results are not listed. Activity calls are given as the source filed them. The calls were made as follows: active = hit-call score of the fitted dose curve at least 0.9, where 1 is the maximum; inconclusive = response in the unintended direction; inactive = score below 0.9.
Outcome (select one): active, inactive

INSERT INTO measurements (compound, qualitative_label) VALUES
  ('O=C(O)C(F)(F)C(F)(F)C(F)(F)C(F)(F)C(F)(F)C(F)(F)C(F)(F)C(F)(F)F', 'active'),
  ('O=C(NC(=O)c1c(F)cccc1F)Nc1cc(Cl)c(OC(F)(F)C(F)F)c(Cl)c1', 'inactive'),
  ('CN(C)CCO', 'inactive');

Returns: the outcome recorded for Oc1c(Cl)c(Cl)c(Cl)c(Cl)c1Cl in this assay.
inactive

For CC(C)C(=O)OCC(C)(C)C(OC(=O)C(C)C)C(C)C (stereo not drawn) then?
active

For C[C@]12CCC(=O)C=C1CC[C@@H]1[C@@H]2CC[C@@]2(C)[C@H]1CC[C@]2(C)O then?
inactive

For NS(=O)(=O)C(F)(F)C(F)(F)C(F)(F)C(F)(F)C(F)(F)C(F)(F)C(F)(F)C(F)(F)F then?
active

For c1ccc(-c2ccccc2)cc1 then?
inactive

For CC1=C2C[C@H]3[C@@H](CC=C4C[C@@H](O)CC[C@@]43C)[C@@H]2CC[C@]12O[C@@H]1C[C@H](C)CN[C@H]1[C@H]2C then?
inactive

For O=C(NC(=O)c1cc(F)c(F)cc1Cl)Nc1cc(F)ccc1N1CCC(C(=O)O)CC1 then?
inactive
